target: unphosphorylated-BTK kinase domain (UP-BTK), GST-tagged human BTK (389-659aa) (Homo sapiens (Human)); assay: BTK kinase Lanthascreen binding assay; conditions: unphosphorylated-BTK kinase domain, 50 nM Tracer 236, 60 minutes; pIC50 = negative log of the IC50 in molar
EXPERIMENTAL_ENDPOINT: BTK_I_binding pIC50

C=CC(=O)N1CCC[C@@H](NC(=O)c2sc3nccc4c3c2NC(=O)N4c2cccc(OC3CCCC3)c2)C1 | 7.3
O=C(N[C@@H]1CCCNC1)c1sc2nccc3c2c1NC(=O)N3c1cccc(-c2ccccc2)c1 | 6.9
Cc1cc(Oc2cccnc2)ccc1N1C(=O)Nc2c(C(=O)N[C@@H]3CCCN(C)C3)sc3nccc1c23 | 6.1
C=CC(=O)N1CCC[C@@H](NC(=O)c2sc3nccc4c3c2NC(=O)N4c2cccc(Cc3ccccc3)c2)C1 | 7.7

----------
target: unphosphorylated-BTK kinase domain (UP-BTK), GST-tagged human BTK (389-659aa) (Homo sapiens (Human), UniProt Q06187); assay: BTK kinase Lanthascreen binding assay; conditions: pIC50 = negative log of the IC50 in molar; 60 minutes incubation, 50 nM Tracer 236
Sequence (Q06187 389-659): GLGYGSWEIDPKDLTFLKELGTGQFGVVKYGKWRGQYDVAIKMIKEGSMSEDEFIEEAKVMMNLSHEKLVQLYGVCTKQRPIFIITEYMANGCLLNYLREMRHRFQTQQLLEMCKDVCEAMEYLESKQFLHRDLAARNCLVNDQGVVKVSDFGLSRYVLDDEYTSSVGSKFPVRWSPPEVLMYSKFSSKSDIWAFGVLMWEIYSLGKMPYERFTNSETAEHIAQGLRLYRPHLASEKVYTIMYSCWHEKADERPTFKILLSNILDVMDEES
EXPERIMENTAL_ENDPOINT: BTK_I_binding pIC50

C=CC(=O)N1CC[C@@H](N(C)C(=O)c2sc3nccc4c3c2NC(=O)N4c2ccc(Oc3ccccc3)cc2C)C1 | 6.6
C/C=C/C(=O)N1CCC[C@@H](NC(=O)c2sc3nccc4c3c2NC(=O)N4c2ccc(Oc3ccccc3)cc2C)C1 [Example 105] | 6.9
Cc1c(N2C(=O)Nc3c(C(=O)N[C@@H]4CCCN(C(=O)CCS(C)(=O)=O)C4)sc4nccc2c34)ccc(Oc2ccccc2)c1F | 7.3
Cc1cc(Oc2ccccc2)ccc1N1C(=O)Nc2c(C(=O)NC3CCCCN(C#N)C3)sc3nccc1c23 (stereo not shown) | 6.9
C=CC(=O)N1CC[C@@H](NC(=O)c2sc3nccc4c3c2NC(=O)N4c2c(Cl)ccc3c2OCO3)C1 | 7.1
COc1ccccc1Oc1ccc(N2C(=O)Nc3c(C(=O)N[C@@H]4CCCN(C)C4)sc4nccc2c34)c(C)c1 | 6.8
C=C(C)C(=O)N1CCC[C@@H](NC(=O)c2sc3nccc4c3c2NC(=O)N4c2ccc(Oc3ccccc3)cc2C)C1 | 6.9
CNCC(=O)N1CCC[C@@H](NC(=O)c2sc3nccc4c3c2NC(=O)N4c2ccc(Oc3ccccc3)cc2C)C1 (single isomer, unassigned) [Example 183] | 7.5
COCCNC(C)(C)C=C(C#N)C(=O)N1CCC[C@@H](NC(=O)c2sc3nccc4c3c2NC(=O)N4c2ccc(Oc3ccccc3)cc2C)C1 (mixture of isomers) | 7.2
Cc1cc(Oc2ccccc2)ccc1N1C(=O)Nc2c(C(=O)N[C@@H]3CCN(C(C)C)C3)sc3nccc1c23 (single isomer, unassigned) [Example 93] | 7.1
C=C(F)C(=O)N1CCC[C@@H](NC(=O)c2sc3nccc4c3c2NC(=O)N4c2ccc(Oc3ccccc3)cc2C)C1 [Example 48] | 6.9
Cc1cc(Oc2ccccc2)ccc1N1C(=O)Nc2c(C(=O)N[C@H]3CNC[C@H]3O)sc3nccc1c23 | 6.7
CCOc1ccc(N2C(=O)Nc3c(C(=O)N[C@@H]4CCCN(C(=O)/C(C#N)=C/C5CC5)C4)sc4nccc2c34)c(C)c1 | 7.3
